Measured pIC50 values are reported for all entries that follow.
Molecular target: UniProt P07237
Test: Inhibition of recombinant human N-terminal His-tagged PDI expressed in Escherichia coli BL21 (DE3) pLysS assessed as reduction in enzyme-mediated bovine insulin aggregation
Sequence (P07237 whole entry): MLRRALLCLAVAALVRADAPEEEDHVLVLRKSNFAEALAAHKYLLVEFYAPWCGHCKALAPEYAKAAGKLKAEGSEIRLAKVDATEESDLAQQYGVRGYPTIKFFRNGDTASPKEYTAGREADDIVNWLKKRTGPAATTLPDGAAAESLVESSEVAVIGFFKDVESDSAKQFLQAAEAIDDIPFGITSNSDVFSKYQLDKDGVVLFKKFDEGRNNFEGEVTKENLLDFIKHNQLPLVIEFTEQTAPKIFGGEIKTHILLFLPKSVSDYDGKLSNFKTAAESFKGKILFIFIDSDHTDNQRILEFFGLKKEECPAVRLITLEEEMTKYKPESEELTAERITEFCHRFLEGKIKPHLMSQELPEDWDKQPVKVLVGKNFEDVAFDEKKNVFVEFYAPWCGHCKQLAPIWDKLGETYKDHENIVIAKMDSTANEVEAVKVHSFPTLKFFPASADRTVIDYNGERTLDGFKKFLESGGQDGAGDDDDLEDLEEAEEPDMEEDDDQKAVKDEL
Please keep in mind that pIC50 is minus log10 of the molar concentration; only the number is needed.

Recorded results for 6 compounds are shown here.
- Compound: "N#Cc1cccc(/C=C/C(=O)c2ccc(O)c(C(F)(F)F)c2)c1"
  pIC50: 5.70
- Compound: "O=C(/C=C/c1ccccc1C(F)(F)F)c1ccc(O)cc1"
  pIC50: 5.78
- Compound: "CCCN(CCC)S(=O)(=O)c1ccc(C(=O)/C=C/c2cccc(C#N)c2)cc1"
  pIC50: 6.09
- Compound: "N#Cc1cccc(/C=C/C(=O)c2ccc(S(=O)(=O)NC3CC3)cc2)c1"
  pIC50: 5.98
- Compound: "O=C(/C=C/c1cccc(C(F)(F)F)c1)c1cnccn1"
  pIC50: 5.02
- Compound: "N#Cc1cccc(/C=C/C(=O)c2ccc(Br)cc2)c1"
  pIC50: 5.78

Ask | What does the data say about its pIC50? Entry: COC(=O)c1cccc(/C=C/C(=O)c2ccc(O)c(C(F)(F)F)c2)c1
Reply | 6.31

Ask | What value of pIC50 has been reported for the following compound? O=C(/C=C/c1ccc(C(F)(F)F)cc1)c1ccc(O)cc1
Reply | 5.59

Ask | Fill in: pIC50 of N#Cc1cccc(/C=C/C(=O)c2ccc(S(N)(=O)=O)cc2)c1 is ___
Reply | 5.18

Ask | Could you share which pIC50 value was measured for O=C(/C=C/c1ccc(Br)cc1)c1cccc(O)c1 ?
Reply | 6.40

Ask | Recorded pIC50 for COc1ccc(C(=O)/C=C/c2cccc(C#N)c2)cc1O , please?
Reply | 4.96

Ask | Entry under review: COC(=O)c1cccc(/C=C/C(=O)c2ccc(CO)c(Br)c2)c1 . Reported pIC50?
Reply | 6.89

Ask | Entry O=C(/C=C/c1ccc(-n2cnc3ccccc32)cc1)c1cccc(O)c1 has what pIC50?
Reply | 6.64

Ask | Look up pIC50 for this compound: CN(C)S(=O)(=O)c1ccc(C(=O)/C=C/c2cccc(C#N)c2)cc1
Reply | 5.21

Ask | // lookup pIC50 for N#Cc1cccc(/C=C/C(=O)c2ccc(O)c(F)c2)c1
Reply | 5.94

Ask | So what's the measured pIC50 for this one? O=C(O)c1cccc(/C=C/C(=O)c2ccc(O)c(C(F)(F)F)c2)c1
Reply | 5.39

Ask | Data request, read-out pIC50, for COc1ccc(/C=C/C(=O)c2ccc(O)cc2)cc1
Reply | 5.76

Ask | Reported pIC50 for C#CC(=O)N(c1ccc(OC)cc1OC)C(C(=O)NCC(=O)OCC)c1cccs1 (stereo not drawn) : what is it?
Reply | 4.97

Ask | Which measured pIC50 value corresponds to N#Cc1cccc(/C=C/C(=O)c2ccc(NS(=O)(=O)c3ccc([N+](=O)[O-])cc3)cc2)c1 ?
Reply | 5.07

###

Biological target: Protein disulfide-isomerase (Homo sapiens, UniProt P07237)
Experiment: Binding affinity to recombinant human N-terminal His-tagged PDI expressed in Escherichia coli BL21 (DE3) pLysS assessed as change in melting temperature at 100 uM by ROX dye based thermal shift assay
Sequence (P07237 18-508 limits assumed): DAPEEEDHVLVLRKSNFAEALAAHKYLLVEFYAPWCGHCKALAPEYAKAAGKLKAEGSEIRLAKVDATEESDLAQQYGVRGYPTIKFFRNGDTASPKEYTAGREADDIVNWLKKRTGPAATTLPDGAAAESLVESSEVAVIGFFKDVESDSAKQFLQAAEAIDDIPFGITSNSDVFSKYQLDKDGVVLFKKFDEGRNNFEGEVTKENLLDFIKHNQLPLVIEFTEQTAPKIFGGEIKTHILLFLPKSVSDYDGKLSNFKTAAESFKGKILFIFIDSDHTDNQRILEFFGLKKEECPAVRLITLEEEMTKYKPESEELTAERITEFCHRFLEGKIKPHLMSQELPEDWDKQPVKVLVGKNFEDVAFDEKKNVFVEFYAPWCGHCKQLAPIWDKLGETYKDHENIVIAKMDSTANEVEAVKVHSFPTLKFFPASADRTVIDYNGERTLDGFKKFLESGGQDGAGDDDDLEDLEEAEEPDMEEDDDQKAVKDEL
Measured Parameter: ΔTm (°C)
Value expressed in °C; do not type the unit.

Illustrative cases are given below, each with its answer.
- Molecule: "O=C(/C=C/c1ccc(-c2ccncc2)cc1)c1cccc(O)c1"
  ΔTm, °C: 0.34
- Molecule: "C#CC(=O)N(c1ccc(OC)cc1OC)C(C(=O)NCC(=O)OCC)c1cccs1 (stereo not drawn)"
  ΔTm, °C: 0.03
- Molecule: "COC(=O)c1cccc(/C=C/C(=O)c2cccc(O)c2)c1"
  ΔTm, °C: 1.86

Ask | Request the reported ΔTm associated with CCCCCN(CCCCC)S(=O)(=O)c1ccc(C(=O)/C=C/c2cccc(C#N)c2)cc1
Reply | 0.52

Ask | Any idea what its ΔTm is? The molecule is COc1ccc(C(=O)/C=C/c2cccc(C#N)c2)cc1
Reply | -0.24

Ask | Record request: ΔTm value, item CCCCCN(CCCCC)S(=O)(=O)c1ccc(C(=O)/C=C/c2cccc(O)c2)cc1
Reply | 3.58

Ask | # query: ΔTm of entry N#Cc1cccc(/C=C/C(=O)c2ccc(O)cc2)c1
Reply | 2.85

Ask | So what's the measured ΔTm for this one? O=C(/C=C/c1ccc(-c2cccnc2)cc1)c1cccc(O)c1
Reply | 2.83

###

Assay: Cytotoxicity against human NU04 cells assessed as inhibition of cell growth measured after 72 hrs by MTT assay
Format: functional, cell-based
Conditions: Homo sapiens, 72 h; read-out: IC50
Measured Parameter: pIC50
# pIC50 = -log10(concentration in molar units)

These solved cases illustrate the format of a correct answer.
- Smiles Structure: "CCCN(CCC)S(=O)(=O)c1ccc(C(=O)/C=C/c2cccc(C#N)c2)cc1"
  pIC50: 4.58
- Smiles Structure: "COC(=O)c1cccc(/C=C/C(=O)c2ccc(O)cc2)c1"
  pIC50: 4.51
- Smiles Structure: "O=C(/C=C/c1ccc(-c2ccncc2)cc1)c1cccc(O)c1"
  pIC50: 5.42
- Smiles Structure: "CCCCCN(CCCCC)S(=O)(=O)c1ccc(C(=O)/C=C/c2cccc(O)c2)cc1"
  pIC50: 5.12
- Smiles Structure: "N#Cc1ccc(/C=C/C(=O)c2ccc(O)cc2)cc1"
  pIC50: 4.89
- Smiles Structure: "N#Cc1cccc(/C=C/C(=O)c2ccc(O)c(F)c2)c1"
  pIC50: 5.01
- Smiles Structure: "O=C(/C=C/c1ccc(-c2cccnc2)cc1)c1cccc(O)c1"
  pIC50: 5.31
- Smiles Structure: "N#Cc1cccc(/C=C/C(=O)c2ccc(F)c(O)c2)c1"
  pIC50: 4.97

Ask | So what's the measured pIC50 for this one? N#Cc1cccc(/C=C/C(=O)c2ccc(O)cc2)c1
Reply | 4.80

Ask | Looking for the measured pIC50 of CCCCCN(CCCCC)S(=O)(=O)c1ccc(C(=O)/C=C/c2cccc(C#N)c2)cc1 , can you help?
Reply | 5.30

Ask | Query (molecule): O=C(/C=C/c1ccc(-n2cnc3ccccc32)cc1)c1cccc(O)c1 ; field requested: pIC50
Reply | 5.00

###

Target: UniProt:P07237
Experiment: Inhibition of recombinant human N-terminal His-tagged PDI expressed in Escherichia coli BL21 (DE3) pLysS at 100 uM measured after 1 hr by ANS dye based fluorescence spectra analysis
Activity calls are given as the source filed them. The calls are words filed in the database; no cut-off is given here.
One label from this list, please: 1 for active, 0 for inactive

- Compound: "C#CC(=O)N(c1ccc(OC)cc1OC)C(C(=O)NCC(=O)OCC)c1cccs1 (configuration not stated)"
  Group Label: 0
- Compound: "O=C(/C=C/c1ccc(-c2cccnc2)cc1)c1cccc(O)c1"
  Group Label: 1
- Compound: "COc1ccc(C(=O)/C=C/c2cccc(C#N)c2)cc1"
  Group Label: 0

Ask | How was N#Cc1cccc(/C=C/C(=O)c2ccc(O)cc2)c1 classified in this test?
Reply | 1

Ask | Please indicate how the test categorized CCCCCN(CCCCC)S(=O)(=O)c1ccc(C(=O)/C=C/c2cccc(O)c2)cc1 .
Reply | 1

Ask | Which outcome was assigned to COC(=O)c1cccc(/C=C/C(=O)c2cccc(O)c2)c1 in this test?
Reply | 1

Ask | Record request — test call for N#Cc1cccc(/C=C/C(=O)c2cnccn2)c1
Reply | 0

###

Biological target: UniProt:P07237
Experiment: Inhibition of recombinant human N-terminal His-tagged PDI expressed in Escherichia coli BL21 (DE3) pLysS assessed as reduction in enzyme-mediated bovine insulin aggregation
Measured Parameter: log10(IC50) (log10 of the value in µM)
# values: log10(IC50), units µM

- Smiles Structure: "N#Cc1cccc(/C=C/C(=O)c2ccc(F)cc2O)c1"
  log10(IC50): 0.37

Ask | // log10(IC50) lookup, key: O=C(O)c1cccc(/C=C/C(=O)c2ccc(O)c(F)c2)c1
Reply | 0.96

Ask | Request the reported log10(IC50) associated with COC(=O)c1cccc(/C=C/C(=O)c2ccc(OC)c(O)c2)c1
Reply | 1.68

Ask | GET /values?readout=log10(IC50)&item= O=C(/C=C/c1cccc(O)c1)c1ccc(NS(=O)(=O)c2cccs2)cc1
Reply | 1.05

Ask | Suppose we examine the molecule COC(=O)c1cccc(/C=C/C(=O)c2cccc(O)c2)c1 ; what log10(IC50) value has been reported?
Reply | -0.92

###

System: Protein disulfide-isomerase (Homo sapiens), P07237 [H256A]
Sequence (P07237 whole entry H256A): as the sequence (P07237 whole entry) above, with H256A counted along it
Experiment: Binding affinity to recombinant human N-terminal His-tagged PDI H256A mutant expressed in Escherichia coli BL21 (DE3) pLysS assessed as change in melting temperature at 100 uM by ROX dye based thermal shift assay
Activity calls are given as the source filed them. The calls are words filed in the database; no cut-off is given here.
Measured Parameter: Activity

- Smiles Structure: "N#Cc1cccc(/C=C/C(=O)c2ccc(O)cc2)c1"
  Measured Parameter: "Activity"
  Test Value: "inactive"
- Smiles Structure: "CCCCCN(CCCCC)S(=O)(=O)c1ccc(C(=O)/C=C/c2cccc(O)c2)cc1"
  Measured Parameter: "Activity"
  Test Value: "Active"
- Smiles Structure: "COC(=O)c1cccc(/C=C/C(=O)c2cccc(O)c2)c1"
  Measured Parameter: "Activity"
  Test Value: "Active"
- Smiles Structure: "O=C(/C=C/c1ccc(-c2cccnc2)cc1)c1cccc(O)c1"
  Measured Parameter: "Activity"
  Test Value: "Active"

Ask | Bench note: what Activity did C[C@]12CC[C@@H]3c4ccc(O)cc4CC[C@H]3[C@@H]1CC[C@@H]2O show?
Reply | inactive
